# experiment_notes: pH stability study
# Type: physicochemical
# experimental_setup: pH 9 buffer, 20° C., 30 min
In plain terms, low % Remaining, meaning strictly below 60%, gives yes (1), and everything else gives no (0).

Study these solved cases before continuing.
I wonder whether O=C(CCc1cccnc1)Oc1c(F)cccc1F has % Remaining below 60%. Can you tell? no (0)

I wonder whether O=C(CCc1cccnc1)ON1C(=O)CCC1=O has % Remaining below 60%. Can you tell? yes (1)

***
I wonder whether O=C(CCc1cccnc1)Oc1c(F)c(F)cc(F)c1F has % Remaining below 60%. Can you tell? yes (1)

I wonder whether O=C(CCc1cccnc1)Oc1c(Cl)cccc1Cl has % Remaining below 60%. Can you tell? no (0)

====

# experiment_notes: Comparative active ester reactivity study with HOA nucleophile (N-hydroxy-N-methylbenzamide)
# experimental_setup: N-Hydroxy-N-methylbenzamide 1 eq., 60 min, 22±2° C.
In plain terms, low % Active Ester Remaining, meaning strictly below 80%, gives 1 (yes), and everything else gives 0 (no).

Study these solved cases before continuing.
I wonder whether O=C(CCc1cccnc1)Oc1c(F)cccc1F has % Active Ester Remaining below 80%. Can you tell? 1 (yes)

I wonder whether O=C(CCc1cccnc1)ON1C(=O)CCC1=O has % Active Ester Remaining below 80%. Can you tell? 1 (yes)

I wonder whether O=C(CCc1cccnc1)Oc1ccc([N+](=O)[O-])cc1 [Compound D, 4-Nitrophenyl-3-(pyridin-3-yl)propanoate] has % Active Ester Remaining below 80%. Can you tell? 0 (no)

***
I wonder whether O=C(CCc1cccnc1)Oc1c(Cl)cccc1Cl has % Active Ester Remaining below 80%. Can you tell? 0 (no)

I wonder whether O=C(CCc1cccnc1)Oc1c(F)c(F)cc(F)c1F has % Active Ester Remaining below 80%. Can you tell? 1 (yes)

====

# experiment_notes: Comparative active ester reactivity study with HOA nucleophile (benzhydroxamic acid)
# experimental_setup: Benzhydroxamic Acid 1 eq., 15 min, 22±2° C.
metric: % Active Ester Remaining

// below: answered compounds
Look up % Active Ester Remaining: O=C(CCc1cccnc1)ON1C(=O)CCC1=O [Compound E] 1.13%

Look up % Active Ester Remaining: O=C(CCc1cccnc1)Oc1c(F)cccc1F [Compound B] 81.80%

***
Look up % Active Ester Remaining: O=C(CCc1cccnc1)Oc1c(F)c(F)cc(F)c1F [Compound C] 58.86%

Look up % Active Ester Remaining: O=C(CCc1cccnc1)Oc1c(Cl)cccc1Cl [Compound A] 97.05%

Look up % Active Ester Remaining: O=C(CCc1cccnc1)Oc1ccc([N+](=O)[O-])cc1 [Compound D, 4-Nitrophenyl-3-(pyridin-3-yl)propanoate] 96.49%

====

# experiment_notes: Temperature stability study in H2O
# Assay type: physicochemical
# experimental_setup: 50° C., 60 min
metric: % Remaining (%)
Provide only the numeric value, understood in %.

// below: answered molecules
Look up % Remaining: O=C(CCc1cccnc1)ON1C(=O)CCC1=O [Compound E] 20.75

Look up % Remaining: O=C(CCc1cccnc1)Oc1c(F)cccc1F [Compound B] 89.62

***
Look up % Remaining: O=C(CCc1cccnc1)Oc1c(F)c(F)cc(F)c1F [Compound C] 65.73

Look up % Remaining: O=C(CCc1cccnc1)Oc1c(Cl)cccc1Cl [Compound A] 88.94

Look up % Remaining: O=C(CCc1cccnc1)Oc1ccc([N+](=O)[O-])cc1 [Compound D, 4-Nitrophenyl-3-(pyridin-3-yl)propanoate] 72.58
